Origin of measurements: paper PMC10786891

subject-of-test: T1, EsCas13d, nuclease-dead (Eubacterium siraeum, UniProt B0MS50, R295A;H300A;R849A;H854A)
T1 sequence: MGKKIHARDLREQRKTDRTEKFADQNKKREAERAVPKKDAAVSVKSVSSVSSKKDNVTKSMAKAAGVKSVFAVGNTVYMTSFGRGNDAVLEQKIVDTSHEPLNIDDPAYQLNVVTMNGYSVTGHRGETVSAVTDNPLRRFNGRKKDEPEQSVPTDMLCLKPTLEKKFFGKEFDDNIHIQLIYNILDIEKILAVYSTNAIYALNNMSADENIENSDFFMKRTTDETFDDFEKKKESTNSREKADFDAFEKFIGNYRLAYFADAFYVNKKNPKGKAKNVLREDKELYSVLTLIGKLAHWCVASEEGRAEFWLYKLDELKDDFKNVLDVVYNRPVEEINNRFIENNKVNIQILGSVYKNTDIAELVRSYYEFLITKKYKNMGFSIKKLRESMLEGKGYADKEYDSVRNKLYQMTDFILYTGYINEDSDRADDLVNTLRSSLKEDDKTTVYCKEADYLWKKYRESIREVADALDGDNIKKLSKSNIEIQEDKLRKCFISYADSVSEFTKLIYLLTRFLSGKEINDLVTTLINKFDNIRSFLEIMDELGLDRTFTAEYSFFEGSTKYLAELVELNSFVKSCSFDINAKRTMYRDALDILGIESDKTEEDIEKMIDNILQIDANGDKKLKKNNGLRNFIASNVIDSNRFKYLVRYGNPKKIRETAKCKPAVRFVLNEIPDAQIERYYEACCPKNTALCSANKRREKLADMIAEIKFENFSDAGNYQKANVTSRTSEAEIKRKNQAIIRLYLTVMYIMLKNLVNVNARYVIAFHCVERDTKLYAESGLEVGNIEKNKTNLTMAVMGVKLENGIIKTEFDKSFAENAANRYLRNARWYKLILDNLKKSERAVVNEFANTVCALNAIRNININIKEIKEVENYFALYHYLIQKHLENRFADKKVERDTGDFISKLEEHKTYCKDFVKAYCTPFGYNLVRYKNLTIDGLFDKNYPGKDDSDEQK
assay-protocol: crRNA (strand 1, pre-loaded); Mg2+; 40 mM Tris-HCl pH 7.5, 150 mM NaCl, 6 mM MgCl2, 1 mM DTT, 0.1% Tween-20, 0.2 mg/ml BSA; 25 C; 10 min per concentration, then washed
cond: tags: His6-TwinStrep-SUMO cleaved; N-terminal SNAP kept (SNAP-Surface 488); label: 3' end held by stalled T7 RNA polymerase
pKd: −log10 of the molar value.
parameter-measured: pKd

target 1 insG 3' of 11,insA 3' of 11 (mixed) RNA 1: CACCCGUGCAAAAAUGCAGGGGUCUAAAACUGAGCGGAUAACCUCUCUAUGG RNA 2: GGGAAUGGAUCCACAUCUACGAAUUCGUACCAUAGAGAGGUGAUAUCCGCUCACCGAGAUCGGAAGAGCACACGU: 7.82
target 1 insC 3' of 13,insC 3' of 11 (mixed) RNA 1: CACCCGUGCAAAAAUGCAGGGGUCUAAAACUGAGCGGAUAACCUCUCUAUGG RNA 2: GGGAAUGGAUCCACAUCUACGAAUUCGUACCAUAGAGAGCGUCUAUCCGCUCACCGAGAUCGGAAGAGCACACGU: 7.85
target 1 MT 5'PFS CUG 3'PFS AAA (mixed) RNA 1: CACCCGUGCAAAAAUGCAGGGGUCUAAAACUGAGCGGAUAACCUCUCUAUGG RNA 2: GGGAAUGGAUCCACAUCUACGAAUUCCUGCCAUAGAGAGGUUAUCCGCUCAAAAAGAUCGGAAGAGCACACGU: 7.98
target 1 insC 3' of 20,insG 3' of 3 (mixed) RNA 1: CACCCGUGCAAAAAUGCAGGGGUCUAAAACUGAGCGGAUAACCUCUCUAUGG RNA 2: GGGAAUGGAUCCACAUCUACGAAUUCGUACCACUAGAGAGGUUAUCCGCUGCACCGAGAUCGGAAGAGCACACGU: 8.08
target 1 insA 3' of 19,insC 3' of 18 (mixed) RNA 1: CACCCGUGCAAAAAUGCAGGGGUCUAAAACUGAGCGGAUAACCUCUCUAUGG RNA 2: GGGAAUGGAUCCACAUCUACGAAUUCGUACCAUAACGAGAGGUUAUCCGCUCACCGAGAUCGGAAGAGCACACGU: 7.25
target 2 MT 5'PFS CGG 3'PFS AGA (mixed) RNA 1: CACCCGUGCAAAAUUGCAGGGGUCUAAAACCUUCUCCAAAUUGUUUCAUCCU RNA 2: GGGAAUGGAUCCACAUCUACGAAUUCCGGAGGAUGAAACAAUUUGGAGAAGAGAAGAUCGGAAGAGCACACGU: 8.39
target 1 insC 3' of 15,insA 3' of 5 (mixed) RNA 1: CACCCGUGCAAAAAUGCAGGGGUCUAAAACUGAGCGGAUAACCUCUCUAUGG RNA 2: GGGAAUGGAUCCACAUCUACGAAUUCGUACCAUAGAGCAGGUUAUCCGACUCACCGAGAUCGGAAGAGCACACGU: 8.18
target 2 MT 5'PFS GAA 3'PFS AGU (mixed) RNA 1: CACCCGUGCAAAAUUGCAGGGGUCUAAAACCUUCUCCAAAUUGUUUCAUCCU RNA 2: GGGAAUGGAUCCACAUCUACGAAUUCGAAAGGAUGAAACAAUUUGGAGAAGAGUAGAUCGGAAGAGCACACGU: 7.82
